experiment: solubility comparison test in water and mannitol solutions; assay type: physicochemical; conditions: 2% of mannitol solution; read-out: Solubility in 2% of mannitol solution
Ends that are not written are not given here.
recorded-endpoint: solubility

Below, 5 sequences whose answers are already recorded.
biosequence	solubility
TSLKGEIAFDPRRAYYLWF [LXJI54, TSLKGEIAFDPRRAYYLWF]	≥ 1000 µg/mL
FHDQPHLKRKAVCSFQIYAVPWQGT [HMZH51]	≥ 10000 µg/mL
KFKYVGTMEASEDATFNKITRSLQDLQQK [HMZH66]	≥ 10000 µg/mL
SVFGDRITGETIRSQNVMAAASK [WKYE17]	≥ 1000 µg/mL
YKQLTIQVLLDRLVLQRLYPLAIQIKK [YMZH10]	≥ 1000 µg/mL

Ask: Return value of solubility for input FAEKLTLILQEKYKNYWYPEKPSKGQAY [YMZH17] , no commentary.
Result: ≥ 1000 µg/mL

Ask: State, in one line, measured solubility of SRKLEDYGEQKSMSISTAKRLAEFLGDQK [HMZH59]
Result: ≥ 1000 µg/mL

Ask: Give me measured solubility, please, for this sequence: KLTLASWGPKMVLLRLEHQFAVGK [YMZH14]
Result: ≥ 1000 µg/mL

Ask: Look up and report measured solubility for this entry: PGWSLTLGLRCSSRLGLPK [LYLI37, PGWSLTLGLRCSSRLGLPK]
Result: ≥ 1000 µg/mL

Ask: Respond only with solubility recorded for FITRPPHRFLSLLCLGLRIPQLSV [YMZH19]
Result: > 1000 µg/mL

Ask: Identify measured solubility associated with KGFTQGDVGLAMGKLYRNDFSQTTISRFEA [TZQI66]
Result: ≥ 1000 µg/mL

----------
experiment: solubility comparison test in water and mannitol solutions; format: physicochemical; settings: Solubility in water
Ends that are not written are not given here.
recorded-endpoint: solubility

Ask: Hello, please tell me recorded solubility for this one: GQAFKYSSNLLRHMRTHTGEKPF [HMZH60]
Result: < 2 mg/mL

----------
assay: solubility comparison test in water and mannitol solutions; format: physicochemical; settings: Solubility in 2% of mannitol solution
Ends that are not written are not given here.
recorded-endpoint: solubility

Ask: Please supply the value of reported solubility for the item GQAFKYSSNLLRHMRTHTGEKPF [HMZH60]
Result: ≥ 10000 µg/mL

----------
Measured solubility accompanies every entry in the list below.
assay: solubility comparison test in water and mannitol solutions; assay type: physicochemical; conditions: water; read-out: Solubility in water
Ends that are not written are not given here.

Worked examples follow.
biosequence	test-result
SRKLEDYGEQKSMSISTAKRLAEFLGDQK [HMZH59]	300 µg/mL
PGWSLTLGLRCSSRLGLPK [LYLI37, PGWSLTLGLRCSSRLGLPK]	< 100 µg/mL
SSPAEFFELMKGQIRIAKRRVVMASLYLGT [TZQI51]	< 100 µg/mL
KLVFVRKSLNRIEFRECREEILKFLKK [GWMI13]	< 100 µg/mL
FAEKLTLILQEKYKNYWYPEKPSKGQAY [YMZH17]	300 µg/mL

Ask: Specify measured solubility for KFKYVGTMEASEDATFNKITRSLQDLQQK [HMZH66] .
Result: ≤ 1500 µg/mL

Ask: Complete the entry with solubility for FITRPPHRFLSLLCLGLRIPQLSV [YMZH19]
Result: < 100 µg/mL

Ask: Provide one value: measured solubility of KGFTQGDVGLAMGKLYRNDFSQTTISRFEA [TZQI66]
Result: < 100 µg/mL

Recorded values, source patent US20230338491A1.
